# Tested on: [3H]-LCGA-17 binding site in rat brain membranes (putative α2δ)
# Test description: [3H]-LCGA-17 radioligand competition binding assay
Readout name: cross-reactivity with / competition at the [3H]-LCGA-17 binding site

compound="O=C(N/N=C/c1ccccc1O)c1ccccc1O [Salicylidene salicylhydrazide]" assay_system="[3H]-LCGA-17 binding site in rat brain membranes (putative α2δ)" data_value=distinct
compound="C[C@]12CC[C@@H](O)C[C@H]1CC[C@@H]1[C@@H]2CC[C@]2(C)[C@@H](C(=O)CO)CC[C@@H]12 [THDOC]" assay_system="[3H]-LCGA-17 binding site in rat brain membranes (putative α2δ)" data_value=distinct
compound="CN1CCC[C@H]1c1cccnc1 [Nicotine]" assay_system="[3H]-LCGA-17 binding site in rat brain membranes (putative α2δ)" data_value="no cross-reactivity"
compound="CCCN(CCC)C1CCc2ccc(O)cc2C1 (stereo not shown) [7-OH-DPAT]" assay_system="[3H]-LCGA-17 binding site in rat brain membranes (putative α2δ)" data_value="no cross-reactivity"
compound="Oc1noc2c1CCNC2 [Gaboxadol (THIP), Gaboxadol]" assay_system="[3H]-LCGA-17 binding site in rat brain membranes (putative α2δ)" data_value=distinct
compound="CCCCCCN(CCCCCC)C(=O)Cc1c(-c2ccc(F)cc2)[nH]c2ccccc12 [FGIN-1-27]" assay_system="[3H]-LCGA-17 binding site in rat brain membranes (putative α2δ)" data_value=distinct
compound="CC(=O)[C@H]1CC[C@H]2[C@@H]3CC[C@H]4C[C@H](O)CC[C@]4(C)[C@H]3CC[C@]12C [Allopregnanolone]" assay_system="[3H]-LCGA-17 binding site in rat brain membranes (putative α2δ)" data_value=distinct
compound="NCc1cc(=O)[nH]o1 [Muscimol]" assay_system="[3H]-LCGA-17 binding site in rat brain membranes (putative α2δ)" data_value="no cross-reactivity"

Q: Record request: cross-reactivity with / competition at the [3H]-LCGA-17 binding site value, item NCC(=O)O [Glycine]
Result: no cross-reactivity

Q: Moving on to CC(C)(C)OC(=O)c1ncn2c1[C@@H]1CCCN1C(=O)c1c(Br)cccc1-2 [Bretazenil]
Result: distinct

---

# Assay system: [3H]-LCGA-17 binding site in rat brain membranes (putative α2δ)
# Test description: [3H]-LCGA-17 radioligand competition binding assay
# Measurement conditions: competition of [3H]-LCGA-17 binding to rat brain (cortical) membranes; text and Figure 3; listed as gabapentin
Readout name: pIC50
Answer as the number alone; pIC50 is minus log10 of concentration in mol/L.

Q: Give the measured pIC50 of `NCC1(CC(=O)O)CCCCC1` .
Result: 4.96

---

# Tested on: [3H]-LCGA-17 binding site in rat brain membranes (putative α2δ)
# Test description: [3H]-LCGA-17 radioligand competition binding assay
# Measurement conditions: rat brain membranes, result in words
Readout name: cross-reactivity with / competition at the [3H]-LCGA-17 binding site

compound="NCC(CC(=O)O)c1ccc(Cl)cc1 (centres unmarked)" assay_system="[3H]-LCGA-17 binding site in rat brain membranes (putative α2δ)" data_value="no cross-reactivity"
compound=NC(N)=NCCCCN=C(N)N assay_system="[3H]-LCGA-17 binding site in rat brain membranes (putative α2δ)" data_value="no cross-reactivity"
compound=COc1ccc(-n2nc3c4ccccc4[nH]cc-3c2=O)cc1 assay_system="[3H]-LCGA-17 binding site in rat brain membranes (putative α2δ)" data_value="no cross-reactivity"
compound=COc1ccc(-c2ccc(=N)n(CCCC(=O)O)n2)cc1 assay_system="[3H]-LCGA-17 binding site in rat brain membranes (putative α2δ)" data_value="no cross-reactivity"
compound=N[C@@]1(C(=O)O)CC[C@H]2[C@H](C(=O)O)[C@H]21 assay_system="[3H]-LCGA-17 binding site in rat brain membranes (putative α2δ)" data_value="no cross-reactivity"
compound=Cn1ncnc1COc1nn2c(-c3c(F)cccc3F)nnc2cc1C1CCC1 assay_system="[3H]-LCGA-17 binding site in rat brain membranes (putative α2δ)" data_value=distinct
compound=O=C(c1ccc(F)cc1)C1CCN(CCn2c(=O)[nH]c3ccccc3c2=O)CC1 assay_system="[3H]-LCGA-17 binding site in rat brain membranes (putative α2δ)" data_value="no cross-reactivity"
compound=CC1(C)CC(=O)c2c(SCCO)sc(-c3nccs3)c2C1 assay_system="[3H]-LCGA-17 binding site in rat brain membranes (putative α2δ)" data_value=distinct
compound=NCCCNCCCCNCCCN assay_system="[3H]-LCGA-17 binding site in rat brain membranes (putative α2δ)" data_value="no cross-reactivity"
compound=O=C(O)C1=CCNCC1 assay_system="[3H]-LCGA-17 binding site in rat brain membranes (putative α2δ)" data_value=distinct

# context switch: different compound, same cross-reactivity with / competition at the [3H]-LCGA-17 binding site
Q: # query: cross-reactivity with / competition at the [3H]-LCGA-17 binding site of entry `NCCCC(=O)O`
Result: no cross-reactivity

---

# Assay system: [3H]-LCGA-17 binding site in rat brain membranes (putative α2δ)
# Test description: [3H]-LCGA-17 radioligand competition binding assay
# Measurement conditions: competition of [3H]-LCGA-17 (16 nM) binding, rat brain membranes; Table S1
Readout name: IC50

Q: // query IC50 value for entry CC(C(O)c1ccc(O)cc1)N1CCC(Cc2ccccc2)CC1 (stereo not drawn)
Result: > 100 µM

Q: // same read-out, input: `Cn1c2ccc(F)cc2c2c(C(=O)N3CCCC3)cn(-c3ccccc3)c(=O)c21`
Result: > 100 µM

Q: Entry `C[C@]12CC[C@@H](O)C[C@H]1CC[C@@H]1[C@@H]2CC[C@]2(C)[C@@H](C(=O)CO)CC[C@@H]12` please
Result: > 100 µM

Q: Proceed to `NC(N)=NCCCCN=C(N)N`
Result: > 100 µM

Q: Try this compound too: `Fc1ccc(C(OCCN2CCN(CCCc3ccccc3)CC2)c2ccc(F)cc2)cc1`
Result: > 100 µM

Q: Check `CC(=O)[C@H]1CC[C@H]2[C@@H]3CC=C4C[C@@H](O)CC[C@]4(C)[C@H]3CC[C@]12C` too.
Result: > 100 µM

Q: Then what about the compound `O=C(c1ccc(F)cc1)C1CCN(CCn2c(=O)[nH]c3ccccc3c2=O)CC1` ?
Result: > 100 µM

Q: Also need O=C(N/N=C/c1ccccc1O)c1ccccc1O [Salicylidene salicylhydrazide] , thanks.
Result: > 100 µM

Q: Another: `CCCCCCN(CCCCCC)C(=O)Cc1c(-c2ccc(F)cc2)[nH]c2ccccc12`
Result: > 100 µM

---

What pIC50 was measured for each of the following?
# Assay system: [3H]-LCGA-17 binding site in rat brain membranes (putative α2δ)
# Test description: [3H]-LCGA-17 radioligand competition binding assay
pIC50: −log10 of the molar value.

Q: State the recorded pIC50 for this entry: `NCC(=O)O`
Result: < 4.00

Q: // query: `Oc1noc2c1CCNC2`
Result: < 4.00

Q: Repeat for the following molecule: `CC(C)(C)OC(=O)c1ncn2c1[C@@H]1CCCN1C(=O)c1c(Br)cccc1-2`
Result: < 4.00

Q: Try this molecule next: `Cc1ccc(-c2nc3ccc(C)cn3c2CC(=O)N(C)C)cc1`
Result: < 4.00

Q: Another molecule to look at: `CC(=O)[C@H]1CC[C@H]2[C@@H]3CC[C@H]4C[C@H](O)CC[C@]4(C)[C@H]3CC[C@]12C`
Result: < 4.00

Q: Again, but for `CN1CCC[C@H]1c1cccnc1`
Result: < 4.00

All figures here come from paper PMC8372404.
